Tested on: Siso
test_protocol: MTT cell viability assay
Assay type: cell-based
settings: Homo sapiens, calculated via GraphPad QuickCalcs from MTT IC50 and slope factor
IC90 by entry:

molecule: CCOc1c2c(c3ccc(C(=O)N4CCN(S(=O)(=O)c5ccc(C)cc5)CC4)cn13)SSSSS2 [Compound 6]
unit: µM
IC90: 5.07
//
molecule: CCOc1c2c(c3ccc(C(=O)N4CCOCC4)cn13)SSSSS2 [Compound 3]
unit: µM
IC90: 1.23
//
molecule: CCOc1c2c(c3cnc4[nH]c(-c5ccc(OC)cc5)cc4n13)SSSSS2 [Compound 1]
unit: µM
IC90: 0.77
//
molecule: CCOc1c2c(c3ccc(C(=O)N4CCN(C(=O)c5ccc(F)cc5)CC4)cn13)SSSSS2 [Compound 5]
unit: µM
IC90: 1.47
//
molecule: CCOc1c2c(c3ccc(C(=O)N(CC)CC)cn13)SSSSS2 [Compound 4]
unit: µM
IC90: 1.93
//
molecule: CCOc1c2c(c3ccc(C(=O)N4CCCCC4)cn13)SSSSS2 [Compound 2]
unit: µM
IC90: 2.7

* * *

Tested on: PATU-8902
test_protocol: MTT cell viability assay
Type: cell-based
settings: Homo sapiens, calculated via GraphPad QuickCalcs from MTT IC50 and slope factor
Description: Distinct MTT cell viability and crystal violet cell proliferation assays were performed to assess the cytotoxicity of the compounds 1–6 on 14 human cancer cell lines. […] The formazan can be photometrically detected after solubilization and allows for indirect conclusions about the viability of the cells as an IC50 value. […] The effect of the pentathiepins on the viability of the cell lines was assessed via an MTT assay, performed as previously described. […]
# note: exactly 3 µM is not below, so it is n; use y for IC90 strictly under it

molecule: CCOc1c2c(c3cnc4[nH]c(-c5ccc(OC)cc5)cc4n13)SSSSS2 [Compound 1]
system: PATU-8902
assigned_category: y
//
molecule: CCOc1c2c(c3ccc(C(=O)N4CCCCC4)cn13)SSSSS2 [Compound 2]
system: PATU-8902
assigned_category: n
//
molecule: CCOc1c2c(c3ccc(C(=O)N4CCOCC4)cn13)SSSSS2 [Compound 3]
system: PATU-8902
assigned_category: y
//
molecule: CCOc1c2c(c3ccc(C(=O)N4CCN(S(=O)(=O)c5ccc(C)cc5)CC4)cn13)SSSSS2 [Compound 6]
system: PATU-8902
assigned_category: n
//
molecule: CCOc1c2c(c3ccc(C(=O)N4CCN(C(=O)c5ccc(F)cc5)CC4)cn13)SSSSS2 [Compound 5]
system: PATU-8902
assigned_category: y
//
molecule: CCOc1c2c(c3ccc(C(=O)N(CC)CC)cn13)SSSSS2 [Compound 4]
system: PATU-8902
assigned_category: n

* * *

Tested on: RT-112
test_protocol: crystal violet proliferation assay
Type: cell-based
settings: Homo sapiens, 96 h, normoxia, read-out: GI50 CV mean
Each record here notes measured GI50.
reported_metric: GI50

structure_string: CCOc1c2c(c3ccc(C(=O)N(CC)CC)cn13)SSSSS2
system: RT-112
result: 469 nM

structure_string: CCOc1c2c(c3ccc(C(=O)N4CCCCC4)cn13)SSSSS2
system: RT-112
result: 559 nM

structure_string: CCOc1c2c(c3ccc(C(=O)N4CCOCC4)cn13)SSSSS2
system: RT-112
result: 246 nM

structure_string: CCOc1c2c(c3ccc(C(=O)N4CCN(S(=O)(=O)c5ccc(C)cc5)CC4)cn13)SSSSS2
system: RT-112
result: 1100 nM

structure_string: CCOc1c2c(c3cnc4[nH]c(-c5ccc(OC)cc5)cc4n13)SSSSS2
system: RT-112
result: 465 nM

structure_string: CCOc1c2c(c3ccc(C(=O)N4CCN(C(=O)c5ccc(F)cc5)CC4)cn13)SSSSS2
system: RT-112
result: 384 nM
